Source: PubChem BioAssay (NCI)

- System: LOX IMVI melanoma
- Assay Protocol: NCI-60 one-dose screen, 48 h (100 = growth as untreated, 0 = no growth, -100 = all killed)
- Measurement Parameters: 10 µM
Compounds without any hit were thinned out: in the full panel of roughly 83,000, 20% have a hit. Activity calls are given as the source filed them. How the source made its calls: active means growth percent below 10; inactive means the rest.
Overview of recorded growth for various compounds
Assay Readout: growth

{"Compound": "COc1cc(OC)c(S(=O)(=O)N(CCCl)CCCl)cc1C(=O)/C=C/c1cc(OC)c(OC)c(OC)c1", "Assay Readout": "growth", "Measurement": "-84.5% (active)"}
{"Compound": "C[C@H]1[C@H](OC(=O)CCC(=O)N(CCCc2cn(-c3ccc(CN4CCOCC4)cc3)nn2)CCNc2ccnc3cc(Cl)ccc23)O[C@@H]2OC3(C)CC[C@H]4[C@H](C)CC[C@@H]1[C@@]24OO3", "Assay Readout": "growth", "Measurement": "7.19% (active)"}
{"Compound": "CC[C@]12C=CCN3CC[C@@]4(c5ccc(OC)cc5N(C)[C@H]4[C@@](O)(C(=O)OC)[C@@H]1OC(=O)CCC[P+](c1ccc(F)cc1)(c1ccc(F)cc1)c1ccc(F)cc1)[C@@H]32", "Assay Readout": "growth", "Measurement": "31% (inactive)"}
{"Compound": "Cc1c2oc3c(C)ccc(C(=O)N[C@@H]4C(=O)N[C@H](C(C)C)C(=O)N5CCC[C@H]5C(=O)N(C)CC(=O)N(C)[C@@H](C(C)C)C(=O)OC4C)c3nc-2c(C(=O)N[C@@H]2C(=O)N[C@H](C(C)C)C(=O)N3CC(=O)C[C@H]3C(=O)N(C)CC(=O)N(C)[C@@H](C(C)C)C(=O)OC2C)c(N)c1=O (stereo partly specified)", "Assay Readout": "growth", "Measurement": "-0.489% (active)"}
{"Compound": "COC(=O)c1ccc(-n2cc(CCCN(CCNc3ccnc4cc(Cl)ccc34)C(=O)CCC(=O)O[C@@H]3O[C@@H]4OC5(C)CC[C@H]6[C@H](C)CC[C@@H]([C@H]3C)[C@@]46OO5)nn2)cc1", "Assay Readout": "growth", "Measurement": "8.12% (active)"}
{"Compound": "CC(C)C[C@H](NC(=O)CNC(=O)C[C@H]1O[C@@H]2OC3(C)CC[C@H]4[C@H](C)CC[C@@H]([C@H]1C)[C@@]24OO3)B(O)O", "Assay Readout": "growth", "Measurement": "-86.4% (active)"}
{"Compound": "CC(C)N=C([Se])NC(=O)c1ccccc1", "Assay Readout": "growth", "Measurement": "-37.3% (active)"}
{"Compound": "CC12OOC(C)(OO1)C2CCC(=O)NCCNc1ccnc2cc(Cl)ccc12 (stereo unspecified)", "Assay Readout": "growth", "Measurement": "3.57% (active)"}
{"Compound": "C=CC[Se]C(=O)c1ccc(C(=O)[Se]CC=C)s1", "Assay Readout": "growth", "Measurement": "-75.6% (active)"}
{"Compound": "COP(=O)(CC(F)(F)C(F)(F)F)OC", "Assay Readout": "growth", "Measurement": "-63.5% (active)"}
{"Compound": "CC1=C2C(=C[C@@](C)(COP(=O)(Oc3ccccc3)Oc3ccccc3)[C@@H]2O)C(=O)[C@@](C)(O)C12CC2", "Assay Readout": "growth", "Measurement": "-76.3% (active)"}
